TESTED_TARGET: T1, recombinant human EGFR extracellular domain with 6xHis (human, UniProt P00533 25-645)
T1 construct: In-house produced; also called 6xHis EGFR ECD; soluble human EGFR ECD; not shown: 6xHis tag
ASSAY_EXPLANATION: SPR competition, competitor 1308
ENDPOINT: % inhibition (%)
Response body: numeric value in %, unit text excluded.

% inhibition in this record for antibody 1254 (antibody, human IgG1, kappa, V domains shown, Chimeric IgG1 kappa; also called mAb 1254) VH: EVQLVESGGGLVKPGGSLKLSCAASGFAYSTYDMSWVRQTPEKRLEWVAYISSGGDAAYYPDTVKGRFTISRDNAKNTLYLQMSSLKSEDTAMYYCARSRYGNYGDAMDYWGQGTSVTVSS VL: DVVMTQTPLSLPVSLGDQASISCRSSQSLVHSNGNTYLHWYLQKPGQSPKLLLYKVSNRFSGVPDRFSGSGSGTDFTLKISRVESEDLGVYFCSQNTHVYTFGGGTKLEIKR : -2

Others:
% inhibition in this record for antibody 1261 (antibody, human IgG1, kappa, V domains shown, Chimeric IgG1 kappa) VH: EVQLVESGGGLVKPGGSLKLSCAVSGFTFSSYVMSWVRQTPEKRLEWVATITSGGRNIYYLDSVKGRFTISRDNAKNTLYLQMSSLRSEDTAMYYCARHEDYRYDGYYAMDYWGQGTSVTVSS VL: QIVLTQSPAIMSASPGEKVTITCSASSSVSYMHWFQQKPGTSPKLWIYSTSNLASGVPARFSGSGSGTSYSLTISRMEAEDAATYYCQQRSSYPYTFGGGTKLELKR : -10

% inhibition in this record for antibody 1320 (antibody, human IgG1, kappa, V domains shown, Chimeric IgG1 kappa) VH: QVQLQQPGAELVKPGASMKLSCKASGYTFTNYWMHWVKQRPGQGLEWIGEINPSNGRTNYNEKFKSKATLTVDKSSSTAYMQLSSLTSEDSGVYYCAKGGNYYDYDWDYWGQGTTLTVSS VL: DIQMTQTTSSLSASLGDRVTISCSASQDISNYLNWYQQKPDGTVKLLIYHTSTLHSGVPSRFSGSGSGTDYSLTISNLEPEDIATYYCQQYSKLPWTFGGGTKLEIKR : -2
